Sourced from patent US6284768A

# ASSAYED SYSTEM: p56lck GST-SH2 (lck SH2 domain) (Homo sapiens, UniProt P06239)
# Construct: GST (N)
# Sequence (P06239 127-224 limits assumed): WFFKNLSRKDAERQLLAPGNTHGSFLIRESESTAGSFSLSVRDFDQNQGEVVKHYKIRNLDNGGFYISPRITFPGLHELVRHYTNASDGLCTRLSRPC
# PROTOCOL DESCRIPTION: Receptor-ligand equilibrium binding constants by surface plasmon resonance (biosensor), lck SH2 domain
# APPLIED CONDITIONS: Table 1, compounds of formula (II)
pKd: −log10 of the molar value.
ENDPOINT: pKd

# COMPOUND, VALUE
rows = [
    ("COc1ccc(Cn2cc(Br)c(C)c(NC(=O)[C@H](Cc3ccc(C(C)(C)C(=O)O)cc3)NC(=O)C(C)(C)c3ccc4ccccc4c3)c2=O)cc1", 6.38),
    ("CCOc1ccc(Cn2ccc(C)c(NC(=O)C(Cc3ccc(C(C)(C)C(=O)O)cc3)NC(=O)Cc3ccc4ccccc4c3)c2=O)cc1 (stereo not drawn)", 5.89),
    ("COc1ccc(Cn2ccc(C)c(NC(=O)[C@H](Cc3ccc(CC(=O)O)cc3)NC(=O)C(C)(C)C)c2=O)cc1", 4.92),
]

###

The following compounds are listed with their measured pKd values.
# ASSAYED SYSTEM: p56lck GST-SH2 (lck SH2 domain) (Homo sapiens)
# Construct: GST (N)
# PROTOCOL DESCRIPTION: Receptor-ligand equilibrium binding constants by surface plasmon resonance (biosensor), lck SH2 domain
# APPLIED CONDITIONS: Table 2, compounds of formula (III)
pKd: −log10 of the molar value.

# COMPOUND, pKd
data = [
    ("COc1ccc(Cn2ncc(C)c(NC(=O)[C@H](Cc3ccc(CC(=O)O)cc3)NC(=O)Cc3cccc4ccccc34)c2=O)cc1 [Compound 243]", 4.46),
    ("COc1ccc(Cn2nc(C)c(C)c(NC(=O)[C@H](Cc3ccc(CC(=O)O)cc3)NC(=O)Cc3cccc4ccccc34)c2=O)cc1 [Compound 244]", 5.22),
    ("COc1ccc(Cn2ncc(C)c(NC(=O)C(Cc3ccc(C(C)(C)C(=O)O)cc3)NC(=O)Cc3ccc4ccccc4c3)c2=O)cc1 (racemic) [Compound 242]", 6.28),
    ("COc1ccc(Cn2ncc(C)c(NC(=O)C(Cc3ccc(C(C)(C)C(=O)O)cc3)NC(=O)Cc3ccccc3N)c2=O)cc1 (stereo not drawn) [Compound 246]", 4.52),
    ("COc1ccc(Cn2ncc(C)c(NC(=O)C(Cc3ccc(C(C)(C)C(=O)O)cc3)NC(=O)Cc3ccccc3[N+](=O)[O-])c2=O)cc1 (stereo not drawn) [Compound 247]", 5.28),
    ("COc1ccc(Cn2ncc(C)c(NC(=O)C(Cc3ccc(C(C)(C)C(=O)O)cc3)NC(=O)Cc3ccccc3)c2=O)cc1 (stereo not drawn) [Compound 245]", 4.64),
]

###

# ASSAYED SYSTEM: p56lck GST-SH2 (lck SH2 domain) (Homo sapiens, UniProt P06239)
# Construct: GST (N)
# PROTOCOL DESCRIPTION: Receptor-ligand equilibrium binding constants by surface plasmon resonance (biosensor), lck SH2 domain
# APPLIED CONDITIONS: Table 1, compounds of formula (II)
pKd: −log10 of the molar value.
Entry flag: Y if pKd reaches 6; N if it does not.

# COMPOUND, ASSAYED SYSTEM, GROUP LABEL
rows = [
    ("COc1ccc(Cn2ccc(C)c(NC(=O)[C@H](Cc3ccc(N(O)C(=O)C(=O)O)cc3)NC(=O)Cc3c[nH]c4ccccc34)c2=O)cc1 [Compound 24]", "p56lck GST-SH2 (lck SH2 domain) (Homo sapiens, UniProt P06239)", "N"),
    ("COc1ccc(Cn2ccc(C)c(NC(=O)[C@H](Cc3ccc(C(C)(C)C(=O)O)cc3)NC(=O)Cc3ccc(N(C)C)cc3)c2=O)cc1 [Compound 99]", "p56lck GST-SH2 (lck SH2 domain) (Homo sapiens, UniProt P06239)", "Y"),
    ("Cc1ccn(Cc2ccc(OC(C)C)cc2)c(=O)c1NC(=O)[C@H](Cc1ccc(CC(=O)O)cc1)NC(=O)Cc1cccc2ccccc12 [Compound 51]", "p56lck GST-SH2 (lck SH2 domain) (Homo sapiens, UniProt P06239)", "N"),
    ("COCCOCn1ccc(C)c(NC(=O)C(Cc2ccc(C(C)(C)C(=O)O)cc2)NC(=O)Cc2cccc3ccccc23)c1=O (stereo not drawn) [Compound 188]", "p56lck GST-SH2 (lck SH2 domain) (Homo sapiens, UniProt P06239)", "N"),
    ("COc1ccc(Cn2ccc(C)c(NC(=O)[C@H](Cc3ccc(C(C)(C)C(=O)O)cc3)NC(=O)[C@@H](C)c3cccc4ccccc34)c2=O)cc1 [Compound 45]", "p56lck GST-SH2 (lck SH2 domain) (Homo sapiens, UniProt P06239)", "N"),
]

###

# System: Inter-leukin 2 (IL-2) production by activated Human Primary T Lymphocytes
# PROTOCOL DESCRIPTION: Primary T cell assay: inhibition of IL-2 production by activated human primary CD4 positive T lymphocytes
# Type: cell-based
# APPLIED CONDITIONS: Homo sapiens, CD4 positive, Table 5; mean IC50 value; CD4 positive T cells activated with anti-CD3/anti-CD28, IL-2 by ELISA; read-out: IC50 (blocking IL-2 production)

# COMPOUND, ENDPOINT UNIT, IC50
data = [
    ("COc1ccc(Cn2ccc(C)c(NC(=O)[C@H](Cc3ccc(C(C)(C)C(=O)O)cc3)NC(=O)C(C)(C)c3ccc(CC(C)C)cc3)c2=O)cc1 [Compound 124]", "µM", 42),
    ("COc1ccc(Cn2ccc(C)c(NC(=O)C(Cc3ccc(C(C)(C)C(=O)O)cc3)NC(=O)COc3cccc4ccccc34)c2=O)cc1 (stereo not drawn) [Compound 174]", "µM", 67),
    ("CCc1cn(Cc2ccc(OC)cc2)c(=O)c(NC(=O)C(Cc2ccc(C(C)(C)C(=O)O)cc2)NC(=O)Cc2ccc3ccccc3c2)c1C (stereo not drawn) [Compound 222]", "µM", 69),
    ("COc1ccc(Cn2ccc(C)c(NC(=O)[C@H](Cc3ccc(C(C)(C)C(=O)O)cc3)NC(=O)[C@@H](C)c3ccc4ccccc4c3)c2=O)cc1 [Compound 46]", "µM", 58),
    ("COc1ccc(Cn2ccc(C)c(NC(=O)C(Cc3ccc(C(C)(C)C(=O)O)cc3)NC(=O)Cc3cccc4ccccc34)c2=O)cc1 (stereo not drawn) [Compound 169]", "µM", 116),
    ("Cc1ccn(CC2CCCCC2)c(=O)c1NC(=O)C(Cc1ccc(C(C)(C)C(=O)O)cc1)NC(=O)Cc1ccc2ccccc2c1 (stereo not drawn) [Compound 195]", "µM", 63),
    ("CCCCCCn1cc(-c2ccccc2)c(C)c(NC(=O)C(Cc2ccc(C(C)(C)C(=O)O)cc2)NC(=O)Cc2ccc3ccccc3c2)c1=O (stereo not drawn) [Compound 231]", "µM", 57),
    ("COc1ccc(C(C)n2ccc(C)c(NC(=O)C(Cc3ccc(C(C)(C)C(=O)O)cc3)NC(=O)C(C)(C)c3ccc4ccccc4c3)c2=O)cc1 (stereo not drawn) [Compound 184]", "µM", 53),
    ("CCC(C(=O)N[C@@H](Cc1ccc(C(C)(C)C(=O)O)cc1)C(=O)Nc1c(C)ccn(Cc2ccc(OC)cc2)c1=O)c1cccc2ccccc12 (stereo partly drawn) [Compound 126]", "µM", 39),
    ("COc1ccc(Cn2ccc(C)c(NC(=O)[C@H](Cc3ccc(C(C)(C)C(=O)O)cc3)NC(=O)Cc3ccc(Br)c4ccccc34)c2=O)cc1 [Compound 111]", "µM", 64),
    ("COc1ccc(Cn2ccc(C)c(NC(=O)[C@H](Cc3ccc(C(C)(C)C(=O)O)cc3)NC(=O)[C@@H](C)c3ccc(CC(C)C)cc3)c2=O)cc1 [Compound 127]", "µM", 52),
    ("Cc1ccn(CCCc2ccccc2)c(=O)c1NC(=O)C(Cc1ccc(C(C)(C)C(=O)O)cc1)NC(=O)Cc1cccc2ccccc12 (stereo not drawn) [Compound 182]", "µM", 64),
    ("Cc1ccn(CC2(c3ccccc3)CC2)c(=O)c1NC(=O)C(Cc1ccc(C(C)(C)C(=O)O)cc1)NC(=O)Cc1ccc2ccccc2c1 (stereo not drawn) [Compound 214]", "µM", 117),
    ("Cc1ccn(CC2CCCCC2)c(=O)c1NC(=O)C(Cc1ccc(C(C)(C)C(=O)O)cc1)NC(=O)C(C)(C)c1ccc2ccccc2c1 (stereo not drawn) [Compound 196]", "µM", 29),
    ("Cc1ccn(CCCCC(C)C)c(=O)c1NC(=O)C(Cc1ccc(C(C)(C)C(=O)O)cc1)NC(=O)Cc1ccc2ccccc2c1 (stereo not drawn) [Compound 145]", "µM", 56),
    ("COc1ccc(Cn2ncc(C)c(NC(=O)C(Cc3ccc(C(C)(C)C(=O)O)cc3)NC(=O)Cc3ccc4ccccc4c3)c2=O)cc1 (racemic) [Compound 242]", "µM", 60),
    ("COc1ccc(Cn2ccc(C)c(NC(=O)C(Cc3ccc(C(C)(C)C(=O)O)cc3)NC(=O)Cc3c(OC)ccc4ccccc34)c2=O)cc1 (stereo not drawn) [Compound 187]", "µM", 52),
    ("COc1ccc(Cn2ccc(C)c(NC(=O)C(Cc3ccc(C(C)(C)C(=O)O)cc3)NC(=O)Cc3ccc(-c4ccccc4)cc3)c2=O)cc1 (stereo not drawn) [Compound 158]", "µM", 75),
    ("Cc1ccn(CC2(c3ccccc3)CC2)c(=O)c1NC(=O)C(Cc1ccc(C(C)(C)C(=O)O)cc1)NC(=O)Cc1cccc2ccccc12 (stereo not drawn) [Compound 213]", "µM", 166),
    ("COc1ccc(Cn2ccc(C)c(NC(=O)[C@H](Cc3ccc(C4(C(=O)O)CC4)cc3)NC(=O)Cc3ccc4ccccc4c3)c2=O)cc1 [Compound 218]", "µM", 90),
    ("COc1ccc(Cn2ccc(C)c(NC(=O)C(Cc3ccc(C(C)(C)C(=O)O)cc3)NC(=O)C(C)(C)c3ccc(C(F)(F)F)cc3)c2=O)cc1 (stereo not drawn) [Compound 217]", "µM", 70),
    ("COc1ccc(Cn2ccc(C)c(NC(=O)C(Cc3ccc(C(C)(C)C(=O)O)cc3)NC(=O)Cc3ccc(C(C)(C)C)cc3)c2=O)cc1 (stereo not drawn) [Compound 173]", "µM", 93),
    ("COc1ccc(Cn2ccc(C)c(NC(=O)[C@H](Cc3ccc(C(C)(C)C(=O)O)cc3)NC(=O)Cc3ccc(C(C)C)cc3)c2=O)cc1 [Compound 94]", "µM", 156),
    ("COc1ccc(Cn2ccc(C)c(NC(=O)[C@H](Cc3ccc(C(C)(C)C(=O)O)cc3)NC(=O)Cc3ccc(NCC(C)(C)C)cc3)c2=O)cc1 [Compound 132]", "µM", 141),
]
